B1: tRNA (parent)
chain: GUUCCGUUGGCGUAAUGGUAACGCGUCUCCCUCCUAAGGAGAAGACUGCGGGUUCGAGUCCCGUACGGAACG

variants of: B1; assay: yeast fitness relative to wild type (ratio to wild type); higher = fitter; tRNA-Arg(CCU), competitive growth, 37 C, YPD
Fewer inactive variants are shown than the library holds.
The variants listed here are annotated with their yeast fitness.

RESIDUE_CHANGE	yeast fitness
A15U U16A C22G C60U	≤ 0.5

Name the reported yeast fitness value associated with the variant G17C C22U C49G
≤ 0.5

Okay, and C5U C27G A40C ?
≤ 0.5

Okay, and U8A C34G A37U A42U A57G ?
≤ 0.5

Okay, and A21U C33G A57C ?
≤ 0.5

Okay, and C5A C11U U13G C29G C33A U59A ?
≤ 0.5

Okay, and G12A C24U A65U G68A ?
≤ 0.5

Okay, and C22G U53A G68C ?
≤ 0.5
